Species on record: Oryctolagus cuniculus
Assay: Inhibition of cyclooxygenase in rabbit colon microsomes assessed as reduction in conversion of arachidonic acid to PGE2 at 10 uM by liquid scintillation spectrometry relative to control
Each entry gets Not fulfilled if its inhibition stays under 60%, and Fulfilled if its inhibition is 60% or above.

Please review the entries below; each comes with its answer.
compound=Cc1ccccc1OCC1=NCCO1 assigned_category="Not fulfilled"
compound=COc1ccc(OCC2=NCCO2)cc1 assigned_category=Fulfilled

Problem: For this compound, is measured inhibition 60% or higher? Cc1cc(OCC2=NCCO2)ccc1Cl
Result: Fulfilled

Problem: Quick one: Cc1cccc(OCC2=NCCO2)c1
Result: Fulfilled

Problem: Quick one: O=[N+]([O-])c1ccc(OCC2=NCCO2)cc1
Result: Fulfilled

Problem: Quick one: O=[N+]([O-])c1ccccc1OCC1=NCCO1
Result: Not fulfilled

----------
Tested on: Rattus norvegicus
Assay: Toxic ulcerogenic effect in albino rat assessed as incidence of hyperemia at 200 mg/kg, po
Assay type: toxicity, organism-based
Design: dose 200 mg/kg, route oral
Settings: in vivo
In this section we review reported Activity values for a set of compounds.

compound=Cc1ccc(OCC2=NCCO2)c(C)c1 test_value=50%
compound=COc1ccc(OCC2=NCCO2)cc1 test_value=70%
compound="CC(=O)Oc1ccccc1C(=O)O [ASPIRIN]" test_value=60%
compound=Brc1ccccc1OCC1=NCCO1 test_value=90%
compound=Clc1ccc(OCC2=NCCO2)cc1 test_value=60%

Problem: Would you mind telling me what Activity value was observed for CCCCC1C(=O)N(c2ccccc2)N(c2ccccc2)C1=O [PHENYLBUTAZONE] ?
Result: 60%

Problem: Quick one: O=[N+]([O-])c1cccc(OCC2=NCCO2)c1
Result: 35%

Problem: Quick one: Cc1cccc(OCC2=NCCO2)c1
Result: 70%

Problem: Quick one: Brc1ccc(OCC2=NCCO2)cc1
Result: 80%

Problem: Quick one: Fc1ccc(OCC2=NCCO2)cc1
Result: 40%

Problem: Quick one: O=[N+]([O-])c1ccc(OCC2=NCCO2)cc1
Result: 70%

Problem: Quick one: Cc1ccccc1OCC1=NCCO1
Result: 60%

Problem: Quick one: O=[N+]([O-])c1ccccc1OCC1=NCCO1
Result: 55%

Problem: Quick one: Fc1ccccc1OCC1=NCCO1
Result: 60%

Problem: Quick one: Clc1ccccc1OCC1=NCCO1
Result: 40%

Problem: Quick one: Cc1cc(OCC2=NCCO2)ccc1Cl
Result: 70%

----------
Tested on: Rattus norvegicus
Test: Toxic ulcerogenic effect in albino rat assessed as incidence of ulcer at 100 mg/kg, po
Assay type: toxicity, organism-based
Design: dose 100 mg/kg, route oral
Settings: in vivo
Each entry gets NO if its Activity stays under 10%, and YES if its Activity is 10% or above.

compound=O=[N+]([O-])c1ccccc1OCC1=NCCO1 assigned_category=YES
compound=Brc1ccc(OCC2=NCCO2)cc1 assigned_category=NO

Problem: For this compound, is measured Activity 10% or higher? O=[N+]([O-])c1cccc(OCC2=NCCO2)c1
Result: YES

Problem: Quick one: Cc1cccc(OCC2=NCCO2)c1
Result: YES

Problem: Quick one: Fc1ccc(OCC2=NCCO2)cc1
Result: YES

Problem: Quick one: CCCCC1C(=O)N(c2ccccc2)N(c2ccccc2)C1=O [PHENYLBUTAZONE]
Result: YES

Problem: Quick one: Cc1cc(OCC2=NCCO2)ccc1Cl
Result: YES

Problem: Quick one: Cc1ccc(OCC2=NCCO2)c(C)c1
Result: YES

Problem: Quick one: CC(=O)Oc1ccccc1C(=O)O [ASPIRIN]
Result: YES

Problem: Quick one: COc1ccc(OCC2=NCCO2)cc1
Result: NO

Problem: Quick one: Clc1ccccc1OCC1=NCCO1
Result: YES

----------
Tested on: Rattus norvegicus
Test: Toxic ulcerogenic effect in albino rat assessed as incidence of ulcer at 400 mg/kg, po
Assay type: toxicity, organism-based
Design: dose 400 mg/kg, route oral
Settings: in vivo
In this section we review reported Activity values for a set of compounds.
Express the result in % but write the number alone.

Consider the worked cases shown below.
compound_structure=CCCCC1C(=O)N(c2ccccc2)N(c2ccccc2)C1=O target_of_assay="Rattus norvegicus" test_value=90
compound_structure=Cc1cccc(OCC2=NCCO2)c1 target_of_assay="Rattus norvegicus" test_value=25
compound_structure=COc1ccc(OCC2=NCCO2)cc1 target_of_assay="Rattus norvegicus" test_value=15

Problem: Could you share what Activity was measured for Brc1ccc(OCC2=NCCO2)cc1 , tested on Rattus norvegicus?
Result: 15

Problem: Quick one: O=[N+]([O-])c1ccccc1OCC1=NCCO1
Result: 45

Problem: Quick one: Clc1ccccc1OCC1=NCCO1
Result: 80

----------
In this section we review reported inhibition values for a set of molecules.
Species: Oryctolagus cuniculus
Assay: Inhibition of cyclooxygenase in rabbit colon microsomes assessed as reduction in conversion of arachidonic acid to PGE2 at 10 uM by liquid scintillation spectrometry relative to control

Consider the worked cases shown below.
compound_structure=Brc1ccc(OCC2=NCCO2)cc1 test_value=60%
compound_structure=Fc1ccccc1OCC1=NCCO1 test_value=65%
compound_structure=CCCCC1C(=O)N(c2ccccc2)N(c2ccccc2)C1=O test_value=60%
compound_structure=CC(=O)Oc1ccccc1C(=O)O test_value=65%

Problem: Would you mind telling me what inhibition value was observed for Brc1ccccc1OCC1=NCCO1 ?
Result: 40%

----------
Tested on: Rattus norvegicus
Experiment: Toxic ulcerogenic effect in albino rat assessed as incidence of ulcer at 100 mg/kg, po
Assay type: toxicity, organism-based
Design: dose 100 mg/kg, route oral
Conditions: in vivo
MEASURED METRIC: Activity (%)
Express the result in % but write the number alone.

Problem: Would you mind telling me what Activity value was observed for Clc1ccc(OCC2=NCCO2)cc1 ?
Result: 10

Problem: Quick one: Cc1ccccc1OCC1=NCCO1
Result: 10

Problem: Quick one: Brc1ccccc1OCC1=NCCO1
Result: 10

Problem: Quick one: Fc1ccccc1OCC1=NCCO1
Result: 10

Problem: Quick one: O=[N+]([O-])c1ccc(OCC2=NCCO2)cc1
Result: 10

----------
Tested on: Rattus norvegicus
Experiment: Toxic ulcerogenic effect in albino rat assessed as incidence of ulcer at 400 mg/kg, po
Format: toxicity, organism-based
Design: dose 400 mg/kg, route oral
Settings: in vivo
Each entry gets no (0) if its Activity stays under 40%, and yes (1) if its Activity is 40% or above.

Please review the entries below; each comes with its answer.
compound_structure=CC(=O)Oc1ccccc1C(=O)O assigned_category="yes (1)"
compound_structure=Fc1ccccc1OCC1=NCCO1 assigned_category="no (0)"
compound_structure=O=[N+]([O-])c1ccc(OCC2=NCCO2)cc1 assigned_category="no (0)"
compound_structure=O=[N+]([O-])c1cccc(OCC2=NCCO2)c1 assigned_category="yes (1)"
compound_structure=Cc1ccc(OCC2=NCCO2)c(C)c1 assigned_category="no (0)"
compound_structure=Clc1ccc(OCC2=NCCO2)cc1 assigned_category="no (0)"

Moving on to another compound below.
Problem: For this compound, is measured Activity 40% or higher? Fc1ccc(OCC2=NCCO2)cc1
Result: yes (1)

----------
Test system: Rattus norvegicus
Assay: Toxic ulcerogenic effect in albino rat assessed as incidence of ulcer at 400 mg/kg, po
Type: toxicity, organism-based
Parameters: dose 400 mg/kg, route oral
Conditions: in vivo
MEASURED METRIC: Activity

Problem: Could you share what Activity was measured for Brc1ccccc1OCC1=NCCO1 , tested on Rattus norvegicus?
Result: 40%

Problem: Quick one: Cc1ccccc1OCC1=NCCO1
Result: 40%

Problem: Quick one: Cc1cc(OCC2=NCCO2)ccc1Cl
Result: 40%
